Values compiled from patent US9708318B2.

target: FGFR4 (Homo sapiens (Human), UniProt P22455); assay: FGFR Enzymatic Assay (FRET peptide phosphorylation), FGFR4; format: biochemical; settings: pre-incubated for 4 hours
Sequence (P22455 22-802): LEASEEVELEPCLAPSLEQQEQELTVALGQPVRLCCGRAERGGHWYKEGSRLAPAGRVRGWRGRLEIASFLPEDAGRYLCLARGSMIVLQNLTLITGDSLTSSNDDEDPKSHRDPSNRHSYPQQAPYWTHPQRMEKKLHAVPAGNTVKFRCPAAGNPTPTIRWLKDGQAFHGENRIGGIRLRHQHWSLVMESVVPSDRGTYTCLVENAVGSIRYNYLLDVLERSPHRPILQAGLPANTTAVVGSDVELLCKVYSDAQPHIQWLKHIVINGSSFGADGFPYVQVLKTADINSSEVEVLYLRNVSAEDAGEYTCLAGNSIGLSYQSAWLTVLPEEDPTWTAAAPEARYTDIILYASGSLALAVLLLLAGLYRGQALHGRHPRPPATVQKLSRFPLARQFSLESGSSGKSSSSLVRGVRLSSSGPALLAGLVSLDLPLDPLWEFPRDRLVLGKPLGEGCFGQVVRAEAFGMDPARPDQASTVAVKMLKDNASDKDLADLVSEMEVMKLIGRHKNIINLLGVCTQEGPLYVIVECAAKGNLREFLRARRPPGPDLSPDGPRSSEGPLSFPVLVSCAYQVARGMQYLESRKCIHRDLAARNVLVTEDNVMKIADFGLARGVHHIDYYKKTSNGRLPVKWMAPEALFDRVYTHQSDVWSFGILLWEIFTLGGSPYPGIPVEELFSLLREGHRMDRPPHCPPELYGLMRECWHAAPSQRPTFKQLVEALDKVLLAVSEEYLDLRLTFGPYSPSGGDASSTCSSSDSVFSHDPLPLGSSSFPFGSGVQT
IC50 values, listed per item
parameter: IC50

>>> reading("COc1cc(OC)c(F)c(N2Cc3cnc(-c4cncc(N5CCOCC5)c4)cc3C3(CC3)C2=O)c1F")
"< 10 nM"
>>> reading("COc1cc(OC)c(F)c(N2Cc3cnc(-c4cn(C)nc4C)cc3N(c3ccc(S(C)(=O)=O)cc3)C2=O)c1F")
"30 to 200 nM"
>>> reading("COc1cc(OC)c(F)c(N2Cc3cnc(-c4cn(C)nc4C)cc3N(c3cnn(C4CC4)c3)C2=O)c1F")
"30 to 200 nM"
>>> reading("COc1cc(OC)c(F)c(N2Cc3cnc(-c4cnn(CCN5CCOCC5)c4)cc3C3(CC3)C2=O)c1F")
"< 10 nM"
>>> reading("COc1cc(OC)c(F)c(N2Cc3cnc(-c4cn(C)nc4C)cc3N(C[C@H]3CCOC3)C2=O)c1F")
"30 to 200 nM"
>>> reading("COc1cc(OC)c(F)c(N2Cc3cnc(-c4cc(N)cnc4C)cc3C3(CC3)C2=O)c1F")
"30 to 200 nM"
>>> reading("COc1cc(OC)c(F)c(N2Cc3cnc(-c4cnn(C)c4)cc3C3(CC3)C2=O)c1F")
"< 10 nM"
>>> reading("COc1cc(OC)c(F)c(N2Cc3cnc(-c4cn(C)nc4C)cc3N(c3cnccn3)C2=O)c1F")
"30 to 200 nM"
>>> reading("CCN1C(=O)N(c2c(F)c(OC)cc(OC)c2F)Cc2cnc(-c3cn(CCN4CCOCC4)nc3C)cc21")
"30 to 200 nM"
>>> reading("COc1cc(OC)c(F)c(N2Cc3cnc(-c4cn(C)nc4C)cc3N(Cc3cnn(C)c3)C2=O)c1F")
"< 10 nM"
>>> reading("COc1cc(OC)c(F)c(N2Cc3cnc(-c4cn(Cc5cccnc5)nc4C)cc3C3(CC3)C2=O)c1F")
"30 to 200 nM"
>>> reading("COc1cc(OC)c(F)c(N2Cc3cnc(-c4cnn(CCC5CCN(S(C)(=O)=O)CC5)c4)cc3C3(CC3)C2=O)c1F")
"10 to 30 nM"
>>> reading("COc1cc(OC)c(F)c(N2Cc3cnc(-c4ccc(C5(C#N)CCC5)nc4)cc3N(c3cnn(C)c3)C2=O)c1F")
"30 to 200 nM"
>>> reading("COc1cc(OC)c(F)c(N2Cc3cnc(-c4nn(C)cc4C#N)cc3C3(CC3)C2=O)c1F")
"10 to 30 nM"
>>> reading("COc1cc(OC)c(F)c(N2Cc3cnc(-c4cnn(CC5CN(S(C)(=O)=O)C5)c4)cc3C3(CC3)C2=O)c1F")
"10 to 30 nM"
